Test system: HEK293 NF-kB-luciferase reporter cells
Assay notes: NF-kB luciferase reporter activity, robust Z-score vs plate median (robust Z-score (log luminescence)); higher = stronger NF-kB reporter activation
Condition set: TNF 40 ng/mL; TNF treatment time 8.5 h; transfection time 72 h
Entry flag: Met if NF-kB luciferase reporter activity reaches 0.03; Not met if it does not.

Chain	Cat
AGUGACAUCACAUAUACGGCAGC	Not met
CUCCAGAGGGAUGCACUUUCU	Not met
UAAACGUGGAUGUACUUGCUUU	Met
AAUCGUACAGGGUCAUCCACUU	Met
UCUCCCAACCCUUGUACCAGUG	Met
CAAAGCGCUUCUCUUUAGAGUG	Met
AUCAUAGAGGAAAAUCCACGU	Not met
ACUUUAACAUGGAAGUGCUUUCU	Met
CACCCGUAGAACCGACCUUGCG	Met
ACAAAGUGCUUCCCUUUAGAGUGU	Not met
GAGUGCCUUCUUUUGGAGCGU	Not met
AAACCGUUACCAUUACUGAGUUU	Met
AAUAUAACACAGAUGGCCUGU	Met
UCUACAGUGCACGUGUCU	Not met
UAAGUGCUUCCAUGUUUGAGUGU	Not met
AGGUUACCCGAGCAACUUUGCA	Not met
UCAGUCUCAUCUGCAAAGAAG	Met
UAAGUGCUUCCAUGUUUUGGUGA	Not met
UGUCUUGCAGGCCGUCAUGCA	Not met
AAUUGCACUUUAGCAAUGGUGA	Not met
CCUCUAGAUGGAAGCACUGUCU	Met
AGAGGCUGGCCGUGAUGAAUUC	Not met
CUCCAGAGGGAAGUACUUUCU	Not met
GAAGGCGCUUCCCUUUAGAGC	Not met
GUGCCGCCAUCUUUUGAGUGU	Not met
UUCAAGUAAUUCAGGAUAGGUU	Not met
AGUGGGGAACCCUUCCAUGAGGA	Not met
UCCCUGAGACCCUUUAACCUGUG	Met
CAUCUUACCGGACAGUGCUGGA	Not met
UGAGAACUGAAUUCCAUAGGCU	Met
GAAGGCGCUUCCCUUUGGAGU	Not met
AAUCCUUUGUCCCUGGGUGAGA	Met
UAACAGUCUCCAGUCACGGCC	Not met
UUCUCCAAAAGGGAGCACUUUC	Not met
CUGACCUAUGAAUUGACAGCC	Not met
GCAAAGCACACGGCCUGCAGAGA	Not met
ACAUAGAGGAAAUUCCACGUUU	Not met
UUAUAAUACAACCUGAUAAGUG	Not met
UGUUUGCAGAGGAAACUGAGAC	Not met
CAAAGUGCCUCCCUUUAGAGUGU	Met
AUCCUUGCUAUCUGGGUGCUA	Met
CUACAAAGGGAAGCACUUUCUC	Not met
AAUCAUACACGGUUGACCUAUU	Not met
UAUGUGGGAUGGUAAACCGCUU	Not met
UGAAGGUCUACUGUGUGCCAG	Not met
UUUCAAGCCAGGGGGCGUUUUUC	Met
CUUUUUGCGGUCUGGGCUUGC	Not met
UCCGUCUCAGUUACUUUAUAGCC	Met
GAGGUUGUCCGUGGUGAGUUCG	Not met
